reported metric: melting point

Worked set:
> print(dat)
                                compound  measured.value
1          CNc1ccc([N+](=O)[O-])c2nonc12   257 to 259 °C
2      COc1cc(NC(=O)C2CC2)c(C(=O)O)cc1OC   236 to 238 °C
3                       COC(=O)c1ncccc1F     81 to 83 °C
4  COc1ccc(S(=O)(=O)Cl)c([N+](=O)[O-])c1     75 to 79 °C
5               CC(C)(C(=O)O)c1ccc(F)cc1     89 to 91 °C
6           Cc1nc(COc2ccc(C(=O)O)cc2)no1   197 to 199 °C

melting point measured on Cc1ccc(S(=O)(=O)OCc2nc3ccccc3s2)cc1 = 108 to 110 °C

melting point measured on Cc1nccn1-c1ccc(N)cc1F = 84 to 86 °C

melting point measured on CCNc1nc(S)nc2ccccc12 = 283 to 285 °C

melting point measured on Cc1ccc(-n2nc(Br)cc2C(=O)O)cc1 = 219 to 221 °C

melting point measured on CC(C)(C)OC(=O)Nc1cc(C(=O)O)ccc1F = 177 to 179 °C

melting point measured on Cc1cccc(-c2nn(-c3ccc(F)cc3)cc2C(=O)O)c1 = 168 to 170 °C

melting point measured on NS(=O)(=O)c1nc2ccccc2s1 = 177 to 179 °C

melting point measured on O=C(O)C1CCCN1S(=O)(=O)c1ccc(Cl)s1 (configuration not stated) = 44 to 46 °C

melting point measured on OCc1ncc(-c2cccc(Cl)c2)o1 = 101 to 103 °C

melting point measured on Oc1ccc2c(c1)OCC2O (configuration not stated) = 104 to 106 °C

melting point measured on CC(=O)Nc1cc(S(=O)(=O)Cl)ccc1C = 145 to 147 °C

melting point measured on Cn1cc(C=O)c(-c2ccc([N+](=O)[O-])cc2)n1 = 175 to 177 °C

###

Measured melting point, listed per entry for reference.

> print(dat)
                                   compound  measured.value
1              Nc1nnc(-c2ccc(Cl)cc2Cl)[nH]1   228 to 230 °C
2  O=C(O)C1CCCN(c2nc3ccccc3s2)C1 (stereo unspecified)   166 to 168 °C
3                    CCCCc1ccc(NC(=S)NN)cc1   125 to 127 °C

melting point measured on O=C(Nc1ccc(F)cc1F)OCC(F)(F)F = 72 to 74 °C

melting point measured on Cc1nc(-c2ccncc2)nc(O)c1C = 256 to 258 °C

melting point measured on CCn1ncc(C(=O)O)c1C(F)(F)F = 136 to 138 °C

melting point measured on O=C(O)COc1ccc(C(=O)c2ccccc2)cc1 = 152 to 156 °C

melting point measured on CC1(c2ccsc2)NC(=O)NC1=O (stereo unspecified) = 151 to 153 °C

melting point measured on CN(C)C(=O)N1CCCC(C(=O)O)C1 (stereo unspecified) = 123 to 125 °C

melting point measured on CN1C(=O)CCC(C(N)=O)C1c1cccs1 (stereo unspecified) = 179 to 181 °C

melting point measured on CC(C)(C)NC(N)=S = 171 to 175 °C

melting point measured on N#Cc1cc(C(F)(F)F)ccc1S(=O)(=O)Cl = 87 to 89 °C

melting point measured on Cn1cn[nH]c1=O = 134 to 136 °C

melting point measured on Cn1cc(-c2cccc(N)n2)cn1 = 132 to 134 °C

melting point measured on Cc1cccc(OCC(O)CN)c1 (stereo unspecified) = 75 to 77 °C

melting point measured on COc1ccc(-c2cc(N)ccc2OC(F)F)cc1 = 131 to 135 °C

melting point measured on COc1cc(C=O)ccc1OCc1ccc(F)cc1 = 77 to 81 °C

melting point measured on CC(C)(C)NS(=O)(=O)Cc1cccc(C(=O)O)c1 = 199 to 201 °C

melting point measured on Clc1ccccc1-c1ncn[nH]1 = 154 to 156 °C
